Tested on: HCC 2998
measurement_protocol: NCI tumour cell line growth inhibition, 48 h
Calls of active or inactive are those of the source. Cut-off read from the data, not from the text of the source: active = GI50 up to about 1.1 µM and inactive = higher.
Respond using exactly one of the listed classes: yes (1) for active, no (0) for inactive

- compound: "O=C1c2ccccc2-c2nnc(-c3ccc([N+](=O)[O-])cc3)cc21"
  qualitative_label: "no (0)"
- compound: "O=C(O)c1cc2ccccc2c(/N=N/c2ccc(S(=O)(=O)Nc3nccs3)cc2)c1O"
  qualitative_label: "no (0)"
- compound: "O=C1C(C(O)(C(F)(F)F)C(F)(F)F)CCC1C(O)(C(F)(F)F)C(F)(F)F (centres undefined)"
  qualitative_label: "yes (1)"

Query block: Could you check what this test reported for Cc1ccc2c(c1)-c1c(C#N)c(N)nc(-c3ccc(Cl)cc3)c1CCS2(=O)=O ?
Result block: no (0)

Query block: How was COc1cccc(C2CC(=O)c3cc(N4CCCC4)ccc3N2)c1 (centres undefined) classified in this test?
Result block: yes (1)

Query block: Tell me the assay call for COc1cc(/C=C2\NC(=O)C(Cc3cc(OC)c(OC)c(C)c3OC)N(C(C)=O)C2=O)c(OC)c(C)c1OC (centres undefined) please.
Result block: no (0)

Query block: What call does the record list for COc1ccc(/C=C2\CCCCCC2=O)cc1 ?
Result block: no (0)

Query block: So what was the verdict on CN1CCN([C@H]2C[C@H]3[C@@H]4CC=C5C[C@@H](N6CCCC6)CC[C@]5(C)[C@H]4CC[C@]3(C)[C@H]2O)CC1 in this test?
Result block: no (0)

Query block: Lab log entry: CC(=O)CC1CCC(=O)/C=C/C(=O)OC(CC(C)=O)CCC(=O)/C=C/C(=O)O1 (centres undefined) — outcome as called in the assay?
Result block: no (0)

Query block: Please share the test call associated with [N-]=[N+]=Nc1c(C=O)c(=O)n2c3c(cccc13)CCC2 .
Result block: no (0)

Query block: Could you please tell me the result logged for CCCCCCCCCCCCCCC(O)C[N+](C)(CCO)CCO (centres undefined) in this assay?
Result block: no (0)

Query block: # lookup: test call for Cc1nc(C)c(C(=O)NNC(N)=S)cc1C(=O)NNC(N)=S
Result block: no (0)

Query block: Query: recorded result category for NC(=O)C12CC3CC(CC(Br)(C3)C1)C2 in this test
Result block: no (0)

---

System: CCRF-CEM
measurement_protocol: NCI tumour cell line growth inhibition, 48 h
Active and inactive are the calls of the source. No stated cut-off is given here; in the data, active = GI50 up to about 1.1 µM and inactive = higher. Peptide text beside a SMILES is read from it.
Select the matching outcome among YES for active, NO for inactive

Solved cases below.
- compound: "CC(=O)NC(CS)C(=O)NC(CO)C(=O)NC(CO)C(=O)NC(Cc1c[nH]c2ccccc12)C(=O)N1CCCC1C(=O)NC(CO)C(=O)NC(Cc1c[nH]c2ccccc12)C(=O)NC(Cc1c[nH]cn1)C(=O)NC(CO)C(=O)NC(Cc1c[nH]c2ccccc12)C(=O)NCC(=O)NCC(=O)NC(C)C(=O)NC(CCC(N)=O)C(=O)NC(CCCCN)C(=O)NC(C)C(=O)NC(CCCNC(=N)N)C(=O)NC(CCCCN)C(N)=O (stereo unspecified) (Ac-CSSWPSWHSWGGAQKARK-NH2; configuration not given here)"
  qualitative_label: "NO"
- compound: "NS(=O)(=O)c1ccc(NC(=O)N/N=C/c2ccccc2O)cc1"
  qualitative_label: "NO"

Query block: Per the assay record, what outcome was assigned to NCCCN(CCCN)CCc1cn(C(=O)c2ccccc2)cn1 ?
Result block: NO

Query block: Give the logged outcome of this assay for the following compound: Nc1ncc(N)c(NCC2(CO)CC(CCc3ccccc3)C2)n1 (stereo unspecified)
Result block: YES

Query block: Record request — test call for CCCNC(/C=C/[Si](C)(C)C)CO.CCCNCC(O)/C=C/[Si](C)(C)C (stereo unspecified)
Result block: NO

Query block: Please indicate how the test categorized COc1c(I)c(OC)c2c(c1I)O[C@@H]1OCC[C@H]21 .
Result block: NO

Query block: In this assay, the call recorded for Cc1[nH]c2ccccc2c1/C=N/c1ccc(Oc2ccccc2)cc1 was what?
Result block: NO

Query block: I would be grateful if you could indicate the recorded call for Cc1cc(=O)c2c(O)cc3c(c2o1)CC=C(COC1OC(COC2OC(CO)C(O)C(O)C2O)C(O)C(O)C1O)CO3 (stereo unspecified) .
Result block: NO

Query block: Recorded test outcome, item CCSC1(SCC)CCN(/C=N/C(C)(C)C)C1
Result block: NO

Query block: How was CCCCOP1(=O)C=CC(Cl)=C(C)C1 (stereo unspecified) classified in this test?
Result block: NO

Query block: Short answer needed: outcome of this test for O=C1C(c2c(O)[nH]c3ccc(S(=O)(=O)O)cc23)=Nc2ccccc21 ?
Result block: NO

Query block: Recorded test outcome, item N#Cc1nc(Nc2ccc([N+](=O)[O-])cc2)sc1N
Result block: NO

---

Tested on: UO-31
measurement_protocol: NCI tumour cell line growth inhibition, 48 h
The source made the active and inactive calls. No stated cut-off is given here; in the data, active = GI50 up to about 1.1 µM and inactive = higher.
Your answer must be one of the following: 1 for active, 0 for inactive

- compound: "CCOc1cc[n+]([C-](C#N)C#N)cc1"
  qualitative_label: 0
- compound: "O=C(NC(Cc1c[nH]c2ccccc12)C(=O)O)/C(=C/c1ccccc1)NC(=O)c1ccccc1 (stereo not given)"
  qualitative_label: 0

Query block: Please share the test call associated with Cc1cnc2cc(Cl)ccc2c1SCC(=O)O .
Result block: 0

Query block: Answer briefly: the call reported for CSc1nc(-c2cc3c(c(SC)n2)CCC3)cc2c1CCC2 in this assay.
Result block: 0

Query block: I would be grateful if you could indicate the recorded call for O=C1CSC(c2ccccc2O)N1c1nc2cc3sc(N4C(=O)CSC4c4ccccc4O)nc3cc2s1 (stereo not given) .
Result block: 0

Query block: Outcome? CCOP(=O)(OCC)OC1CC(n2cnc3c(N(CC)CC)ncnc32)OC1CO[Si](C)(C)C(C)(C)C (stereo not given)
Result block: 0

Query block: # outcome recorded in this test, key = CCCNC(=O)CCC(C)[C@H]1CCC2C3C(C[C@H](OC(C)=O)[C@@]21C)[C@@]1(C)CCC2(C[C@H]1C[C@H]3OC(C)=O)OOC1(CCC(C)CC1)OO2 (stereo not given in full)
Result block: 1

Query block: What outcome does the record of this test show for c1ccc(-c2sc(-c3cccs3)cc2Cc2cccs2)cc1 ?
Result block: 0

Query block: Per the records of this test, what outcome belongs to Cc1ccc2c(c1)Nc1cc(C(F)(F)F)ccc1[PH]2=O (stereo not given) ?
Result block: 1

Query block: Recorded test call requested for Cc1nc(C)c(C(=O)NNC(N)=S)cc1C(=O)NNC(N)=S
Result block: 0

---

Test system: SR
measurement_protocol: NCI tumour cell line growth inhibition, 48 h
The source made the active and inactive calls. Rule as the data show it: active = GI50 up to about 1.1 µM and inactive = higher.
Classes to choose from: TRUE = active, FALSE = inactive

Some solved cases for reference:
- compound: "CC1(C)O[C@@H](CCl)C[C@@H](C#N)O1"
  qualitative_label: "FALSE"
- compound: "CC(C)(C)NN=C1C(C)(C)C(=NNC(C)(C)C)C1(C)C"
  qualitative_label: "FALSE"
- compound: "COc1cccc(-c2cc(O)c3cc(C)cnc3n2)c1"
  qualitative_label: "TRUE"
- compound: "Clc1ccc(-c2nc3cc(C45CC6CC(CC(C6)C4)C5)ccc3[nH]2)cc1"
  qualitative_label: "FALSE"
- compound: "CCc1ccc2c(c1)/C(=C1/Nc3ccccc3C1=O)C(=O)N2"
  qualitative_label: "FALSE"

Pending compound:
Query block: Dear all, I need the recorded test outcome for CC(=O)OC1(C)N=NC2(CCCCC2)O1 (centres undefined) , thank you.
Result block: FALSE

---

System: A549
measurement_protocol: NCI tumour cell line growth inhibition, 48 h
Activity calls are given as the source filed them. Rule as the data show it: active = GI50 up to about 1.1 µM and inactive = higher.
experimental_readout: GI50

// known answers, use as guide
- compound: "CC(C)(C)OC(=O)[N+](=N)C(=O)C1CCC(=O)N1C(=O)OCc1ccccc1 (configuration not stated)"
  GI50: "> 100 µM (inactive)"
- compound: "CC(=O)Oc1cc2c(=O)oc3c(OC(C)=O)c(OC(C)=O)c(OC(C)=O)c4c(=O)oc(c1OC(C)=O)c2c34"
  GI50: "> 100 µM (inactive)"
- compound: "O=C1C=CC(O)C2C1CC13SSC4(CC5C(=O)C=CC(O)C5N4C1=O)C(=O)N23 (configuration not stated)"
  GI50: "2.52 µM (inactive)"
- compound: "NC(=S)N/N=C1\\CCc2ccccc2C1"
  GI50: "> 100 µM (inactive)"
- compound: "COc1ccc(/C=N/Nc2nc(-c3cc4oc(=O)n(C)c4cc3Cl)cs2)cc1OC"
  GI50: "4.35 µM (inactive)"
- compound: "O=[N+]([O-])c1ccc(-[n+]2ccc3ccccc3c2)c([N+](=O)[O-])c1"
  GI50: "16.4 µM (inactive)"

The reported A549 GI50 of c1ccc2c(c1)cc1c3[nH]c4ccccc4c3ccn21 is > 10 µM (inactive)

Response field GI50 (A549) for item Cc1cccc(NS(=O)(=O)c2ccc(/N=N/c3c(O)c(C(=O)O)cc4ccccc34)cc2)n1 : > 100 µM (inactive)

# value of GI50, A549, item CCOc1cc(NC(C)=O)ccc1C(=O)NN1C(=O)C(Cl)C1c1ccco1 (configuration not stated) = 18.7 µM (inactive)

Measured GI50 for this entry Brc1ccccc2cc(-c3ccccc3)nc1-2 on A549: 14.7 µM (inactive)

The observed GI50 for O=C(N[C@H]1CCC[C@H]1C(=O)Nc1ccc(C(F)(F)F)cc1)OCc1ccccc1 when tested with A549 stands at > 100 µM (inactive)

Tested system A549; GI50 recorded for COc1c(I)c(OC)c2c(c1I)O[C@@H]1OCC[C@H]21 was 34 µM (inactive)
